test system: 2Sp-muMax20 (muMax20 with two 2,6-bis(methyl)pyridine Cys staples); assay: PBM 8-mer E-score (E-score (rank enrichment, -0.5 to 0.5)); higher = stronger preferential binding
Whole data set: some 33,000 sequences, median “E-score (rank enrichment, -0.5 to 0.5)” near -0.0043, cut for the highest 2% near 0.24. This excerpt belongs to a sample that is enriched for the highest values.
Some sequences, each annotated with its measured PBM 8-mer E-score.
Respond with the number and no other words.

TGATTGCA = 0.286

Query the reported PBM 8-mer E-score for 2Sp-muMax20 (muMax20 with two 2,6-bis(methyl)pyridine Cys staples); item: GCTAAACA
-0.106

Also TCTGAAAA ?
-0.037
